# system: HLA-A*6802 (human)
# method_summary: competition with 125I-labeled probe for purified HLA, gel filtration
property_name: IC50 (nM)
Kindly provide the numeric value in nM only, without the unit symbol.

QUERY: Please look at this binder and report its IC50: YLVAYQATV (modifications not checked) [HCV NS4 1590 peptide 1013.02]
RESULT: 33
